target: SpHof1; test: SPOT peptide array binding signal intensity (averaged, normalized) (arbitrary units (background-subtracted, floor 0; scale differs between SH3 domains)); higher = stronger binding of the SH3 domain to the peptide
Record form. Attribute: SPOT peptide array binding signal intensity. Fill in for each entry.
Answer as a number with no unit attached.

Query: Which SPOT peptide array binding signal intensity is listed for "LKQRFFLMFPKSIIW" ?
Result: 236

Query: Which SPOT peptide array binding signal intensity is listed for "LFMKGTPEFPKSGFS" ?
Result: 19

Query: Which SPOT peptide array binding signal intensity is listed for "PLRRTVMSLPGNHDI" ?
Result: 10

Query: Which SPOT peptide array binding signal intensity is listed for "QHQQRQPKRPKRYSL" ?
Result: 81

Query: Which SPOT peptide array binding signal intensity is listed for "NNFYRPLLRSVLVLL" ?
Result: 3

Query: Which SPOT peptide array binding signal intensity is listed for "WRPRIVPILPYITRL" ?
Result: 14.5

Query: Which SPOT peptide array binding signal intensity is listed for "TKFRISLGLPVGAIM" ?
Result: 183

Query: Which SPOT peptide array binding signal intensity is listed for "NENKKLPPAPTVFGL" ?
Result: 49.8

Query: Which SPOT peptide array binding signal intensity is listed for "GKFIPSRPAPKPPSS" ?
Result: 77.5

Query: Which SPOT peptide array binding signal intensity is listed for "KFIPSRPAPKPPSSA" ?
Result: 9.75

Query: Which SPOT peptide array binding signal intensity is listed for "KRKRRLPVSEDTNTK" ?
Result: 150

Query: Which SPOT peptide array binding signal intensity is listed for "RKRRTHLRLPLIRSN" ?
Result: 299

Query: Which SPOT peptide array binding signal intensity is listed for "VTHRLRISIPGITGR" ?
Result: 353
